Attribution: patent US20130230533A1

# EXPERIMENTAL_SYSTEM: T1, Monomeric human CD48-mmH (human)
# T1 chain: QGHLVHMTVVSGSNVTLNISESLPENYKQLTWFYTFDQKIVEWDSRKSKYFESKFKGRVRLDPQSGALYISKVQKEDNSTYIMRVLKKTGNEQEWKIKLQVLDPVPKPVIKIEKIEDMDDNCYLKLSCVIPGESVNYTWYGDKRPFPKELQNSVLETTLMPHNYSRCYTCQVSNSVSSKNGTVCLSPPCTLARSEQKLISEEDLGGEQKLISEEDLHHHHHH
# PROCEDURE_TEXT: SPR (Biacore), antibody captured by anti-Fc, CD48 in solution, 37 C
PROPERTY_NAME: Kd (nM)
Give just the number in nM; leave the unit off.

See these solved cases before continuing.
[[record]]
binder = "H4H1779P (antibody, human IgG4, V domains shown, Human IgG4 Fc (H4H)) VH: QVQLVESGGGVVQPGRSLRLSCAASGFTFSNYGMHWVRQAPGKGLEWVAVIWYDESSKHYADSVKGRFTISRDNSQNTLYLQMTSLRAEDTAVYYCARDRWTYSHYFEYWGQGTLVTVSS VL: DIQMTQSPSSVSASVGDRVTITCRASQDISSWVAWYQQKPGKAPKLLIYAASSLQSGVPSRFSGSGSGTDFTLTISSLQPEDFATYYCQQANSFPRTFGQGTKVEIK"
property_name = "Kd"
measured = 0.495

[[record]]
binder = "H2M1710N (antibody, mouse IgG2, V domains shown, Human variable domains, mouse IgG2 Fc (H2M)) VH: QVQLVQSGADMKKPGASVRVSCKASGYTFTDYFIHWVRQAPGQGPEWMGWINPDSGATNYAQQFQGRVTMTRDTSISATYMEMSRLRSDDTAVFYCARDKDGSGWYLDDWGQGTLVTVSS VL: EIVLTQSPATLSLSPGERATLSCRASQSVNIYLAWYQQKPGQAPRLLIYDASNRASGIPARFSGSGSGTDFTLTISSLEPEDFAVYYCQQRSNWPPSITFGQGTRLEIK"
property_name = "Kd"
measured = 153

[[record]]
binder = "H4H1763N (antibody, V domains shown, Human IgG4 Fc (H4H)) VH: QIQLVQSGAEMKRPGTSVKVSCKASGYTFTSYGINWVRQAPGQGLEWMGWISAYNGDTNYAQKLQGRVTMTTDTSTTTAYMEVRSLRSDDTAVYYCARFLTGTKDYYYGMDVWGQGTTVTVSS VL: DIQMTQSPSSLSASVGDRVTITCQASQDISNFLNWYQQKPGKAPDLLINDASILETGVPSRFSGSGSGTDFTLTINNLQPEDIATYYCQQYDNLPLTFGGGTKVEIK"
property_name = "Kd"
measured = 12.7

[[record]]
binder = "H2M1811N (antibody, mouse IgG2, V domains shown, Human variable domains, mouse IgG2 Fc (H2M)) VH: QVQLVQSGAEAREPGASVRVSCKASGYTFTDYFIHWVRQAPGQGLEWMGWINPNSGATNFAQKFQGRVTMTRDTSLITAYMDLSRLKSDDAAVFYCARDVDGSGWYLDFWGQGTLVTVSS VL: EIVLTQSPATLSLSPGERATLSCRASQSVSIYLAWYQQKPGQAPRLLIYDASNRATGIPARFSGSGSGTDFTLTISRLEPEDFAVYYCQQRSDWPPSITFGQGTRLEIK"
property_name = "Kd"
measured = 22.7

[[record]]
binder = "H4H1772P (antibody, human IgG4, V domains shown, Human IgG4 Fc (H4H)) VH: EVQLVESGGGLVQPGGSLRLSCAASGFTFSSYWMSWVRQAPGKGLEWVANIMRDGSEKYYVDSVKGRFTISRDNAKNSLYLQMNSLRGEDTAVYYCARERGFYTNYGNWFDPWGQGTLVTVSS VL: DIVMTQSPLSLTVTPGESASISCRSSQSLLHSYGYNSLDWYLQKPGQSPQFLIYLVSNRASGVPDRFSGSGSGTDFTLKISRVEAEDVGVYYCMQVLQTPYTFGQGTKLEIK"
property_name = "Kd"
measured = 5.94

[[record]]
binder = "H3M1766N (antibody, V domains shown, Human variable domains, mouse Fc (H3M); also called H2M1766N) VH: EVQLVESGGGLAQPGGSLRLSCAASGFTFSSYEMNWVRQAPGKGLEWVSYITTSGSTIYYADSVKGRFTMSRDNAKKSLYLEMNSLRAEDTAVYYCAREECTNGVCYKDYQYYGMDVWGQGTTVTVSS VL: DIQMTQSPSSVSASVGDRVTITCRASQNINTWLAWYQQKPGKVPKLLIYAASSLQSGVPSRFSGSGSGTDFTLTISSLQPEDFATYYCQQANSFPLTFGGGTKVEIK"
property_name = "Kd"
measured = 3.84

[[record]]
binder = "H4H1771P (antibody, human IgG4, V domains shown, Human IgG4 Fc (H4H)) VH: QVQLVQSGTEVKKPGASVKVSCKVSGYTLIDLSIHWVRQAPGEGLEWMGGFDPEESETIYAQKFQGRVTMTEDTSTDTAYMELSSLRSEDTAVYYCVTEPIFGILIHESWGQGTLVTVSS VL: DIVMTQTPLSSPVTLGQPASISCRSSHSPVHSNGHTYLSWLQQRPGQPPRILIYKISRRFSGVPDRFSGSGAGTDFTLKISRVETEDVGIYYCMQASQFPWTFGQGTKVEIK"
property_name = "Kd"
measured = 0.488

[[record]]
binder = "H2M1712N (antibody, mouse IgG2, V domains shown, Human variable domains, mouse IgG2 Fc (H2M)) VH: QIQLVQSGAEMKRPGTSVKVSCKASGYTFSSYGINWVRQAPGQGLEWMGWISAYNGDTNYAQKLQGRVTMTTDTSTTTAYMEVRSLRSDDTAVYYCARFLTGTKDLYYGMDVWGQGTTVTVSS VL: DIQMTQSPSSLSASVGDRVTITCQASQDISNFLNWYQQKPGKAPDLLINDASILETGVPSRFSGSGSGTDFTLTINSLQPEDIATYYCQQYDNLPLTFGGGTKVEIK"
property_name = "Kd"
measured = 16.6


Let us move to another entry and its Kd.
According to the records, this binder H4H1774P (antibody, human IgG4, V domains shown, Human IgG4 Fc (H4H)) VH: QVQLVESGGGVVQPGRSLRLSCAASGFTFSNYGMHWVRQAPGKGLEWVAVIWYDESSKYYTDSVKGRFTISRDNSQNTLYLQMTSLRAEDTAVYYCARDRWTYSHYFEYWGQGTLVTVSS VL: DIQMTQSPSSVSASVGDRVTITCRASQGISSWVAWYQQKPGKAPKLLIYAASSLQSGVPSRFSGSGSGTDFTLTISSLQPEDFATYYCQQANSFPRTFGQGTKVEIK displays Kd of 0.824
